Target: Recombinant human his-tagged IGF R extracellular domain protein (human) (UniProt P08069)
Test: SPR, Ab captured via anti-huIgG Fc, pH 7.4
quantity.measured: Kd (nM)
API: value field is a number in nM; no unit string.

Request: Dear colleague, I am looking for the recorded Kd of the following binder: VRDN-02024 (antibody, V domains shown) VH: QVQLQESGPGLVKPSETLSLTCTVSGYSITGGYLWNWIRQPPGKGLEWIGYISYDGTNNYKPSLKDRVTISRDTSKNQFSLKLSSVTAADTAVYYCARYGRHFFDYWGQGTLVTVSS VL: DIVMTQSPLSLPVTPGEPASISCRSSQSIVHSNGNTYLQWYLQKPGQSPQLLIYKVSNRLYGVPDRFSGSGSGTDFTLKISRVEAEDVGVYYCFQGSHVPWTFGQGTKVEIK
Result: 0.449

Request: Dear colleague, I am looking for the recorded Kd of the following binder: VRDN-02066 (antibody, V domains shown) VH: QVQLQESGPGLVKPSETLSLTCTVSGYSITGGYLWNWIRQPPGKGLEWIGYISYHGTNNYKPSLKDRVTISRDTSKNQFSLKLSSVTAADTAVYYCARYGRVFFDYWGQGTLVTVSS VL: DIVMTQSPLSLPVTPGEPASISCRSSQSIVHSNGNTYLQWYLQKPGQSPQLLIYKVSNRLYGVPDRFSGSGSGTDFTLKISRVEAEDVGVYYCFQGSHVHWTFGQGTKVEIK
Result: 0.278

Request: Dear colleague, I am looking for the recorded Kd of the following binder: VRDN-02008 (antibody, V domains shown) VH: QVQLQESGPGLVKPSETLSLTCTVSGYSITGGHLWNWIRQPPGKGLEWIGYISYDGTNNYKPSLKDRVTISRDTSKNQFSLKLSSVTAADTAVYYCARYGRVFFDYWGQGTLVTVSS VL: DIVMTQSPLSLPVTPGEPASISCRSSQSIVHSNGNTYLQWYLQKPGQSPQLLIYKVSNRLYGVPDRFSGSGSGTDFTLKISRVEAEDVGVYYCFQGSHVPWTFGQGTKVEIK
Result: 16.6

Request: Dear colleague, I am looking for the recorded Kd of the following binder: VRDN-02055 (antibody, V domains shown) VH: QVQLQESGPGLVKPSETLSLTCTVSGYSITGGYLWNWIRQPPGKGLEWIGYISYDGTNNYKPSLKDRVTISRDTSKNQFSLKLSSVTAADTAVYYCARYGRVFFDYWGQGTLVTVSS VL: DIVMTQSPLSLPVTPGEPASISCRSSQSIVHSNGNTYLQWYLQKPGQSPQLLIYKVSNRLYGVPDRFSGSGSGTDFTLKISRVEAEDVGVYYCFQGSHHPWTFGQGTKVEIK
Result: 0.509

Request: Dear colleague, I am looking for the recorded Kd of the following binder: VRDN-02033 (antibody, V domains shown) VH: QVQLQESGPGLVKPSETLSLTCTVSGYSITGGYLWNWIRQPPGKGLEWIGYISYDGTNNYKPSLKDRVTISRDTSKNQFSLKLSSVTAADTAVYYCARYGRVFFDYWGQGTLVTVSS VL: DIVMTQSPLSLPVTPGEPASISCRSSQHIVHSNGNTYLQWYLQKPGQSPQLLIYKVSNRLYGVPDRFSGSGSGTDFTLKISRVEAEDVGVYYCFQGSHVPWTFGQGTKVEIK
Result: 0.822
